Would you mind telling me the reported solubility at 2 h of each entry?
test: Solubility of peptide compounds in buffer formulations (Table 5); type: physicochemical; details: aqueous buffer; 50 mM phosphate buffer pH 7.4, 2 h agitation, target 1 mg/ml; read-out: Solubility, Buffer pH 7.4
Numbered stars: 1 amine (or outer) side, 2 acyl side, 3 side chain; on linkers, the order of the positions; unused ones are H or OH. Bridge positions count the residues as written; N and C are the ends. Square brackets hold non-standard residues; d marks the D form. Peptide text beside a SMILES is read from it. * marks the point of attachment. Lys(Me,(CH2)4NMe(CH2)4CO) = CN(CCCCC(=O)[*:3])CCCCN(C)CCCC[C@H](N[*:1])C(=O)[*:2]; Trp(7-Me) = Cc1cccc2c(C[C@H](N)C(=O)O)c[nH]c12; Trp(1-Me) = Cn1cc(C[C@H](N)C(=O)O)c2ccccc21; Sebacoyl = O=C(CCCCCCCCC(=O)[*:2])[*:1]; 2Nal = N[C@@H](Cc1ccc2ccccc2c1)C(=O)O; 3Pal = N[C@@H](Cc1cccnc1)C(=O)O; Lys(Me) = CNCCCC[C@H](N)C(=O)O; Thp = NC1(C(=O)O)CCOCC1; Me2NCH2CH2 = CN(C)CC*; Aib = CC(C)(N)C(=O)O; Sar = CNCC(=O)O
Hi! Could you send only the number? It should be in µg/mL, unit omitted.

Enquiry: Record request: solubility at 2 h value, item CN(C)CCOc1ccc(C[C@@H]2NC(=O)C3(CCOCC3)NC(=O)[C@H](CCC(N)=O)NC(=O)[C@H](Cc3cn(C)c4ccccc34)NC(=O)CCCCN(C)CCCCN(C)CCCC[C@@H](C(=O)NCC(=O)N[C@@H](Cc3cccnc3)C(=O)N(C)CC(N)=O)NC(=O)C(C)(C)NC(=O)[C@H](Cc3ccc4ccccc4c3)NC2=O)cc1 [compound 30] ([Trp(1-Me)]Q[Thp]Y(Me2NCH2CH2)[2Nal][Aib][Lys(Me,(CH2)4NMe(CH2)4CO)]G[3Pal][Sar]-NH2; lactam N-7)
Return: 840

Enquiry: Form field: reported solubility at 2 h of Cc1cccc2c(C[C@@H]3NC(=O)CCCCCCCCC(=O)N(C)CCCC[C@@H](C(=O)N[C@@H](CC(N)=O)C(=O)N[C@@H](Cc4cccnc4)C(=O)N(C)CC(N)=O)NC(=O)C(C)(C)NC(=O)[C@H](Cc4ccc5ccccc5c4)NC(=O)[C@H](Cc4ccc(OCCN(C)C)cc4)NC(=O)C4(CCOCC4)NC(=O)[C@H](CCC(N)=O)NC3=O)c[nH]c12 [compound 19] ([Trp(7-Me)]Q[Thp]Y(Me2NCH2CH2)[2Nal][Aib][Lys(Me)]N[3Pal][Sar]-NH2; linker N-7 via Sebacoyl)
Return: 80

* * *

assay: Protease stability in simulated intestinal fluids (FaSSIF) (Table 7); type: in vitro ADME; conditions: fassif with pancreatin, 120 min, 37° C., read-out: Remaining percentage of peptide compound, FaSSIF 120 (min)
Numbered stars: 1 amine (or outer) side, 2 acyl side, 3 side chain; on linkers, the order of the positions; unused ones are H or OH. Bridge positions count the residues as written; N and C are the ends. Square brackets hold non-standard residues; d marks the D form. Peptide text beside a SMILES is read from it. * marks the point of attachment. Trp(7-Me) = Cc1cccc2c(C[C@H](N)C(=O)O)c[nH]c12; 2Nal = N[C@@H](Cc1ccc2ccccc2c1)C(=O)O; X1 = O=C(CCCCCCCCCCCCCN[*:1])[*:2]; 3Pal = N[C@@H](Cc1cccnc1)C(=O)O; Thp = NC1(C(=O)O)CCOCC1; Me2NCH2CH2 = CN(C)CC*; Aib = CC(C)(N)C(=O)O; Sar = CNCC(=O)O
PARAMETER MEASURED: remaining at 2 h, 1 µM (%)
Report the figure in % without appending any unit label.

Enquiry: Entry Cc1cccc2c(C[C@@H]3NC(=O)CCCCCCCCCCCCCNC(=O)CC[C@@H](C(=O)N[C@@H](CC(N)=O)C(=O)N[C@@H](Cc4cccnc4)C(=O)N(C)CC(N)=O)NC(=O)C(C)(C)NC(=O)[C@H](Cc4ccc5ccccc5c4)NC(=O)[C@H](Cc4ccc(OCCN(C)C)cc4)NC(=O)C4(CCOCC4)NC(=O)[C@H](CCC(N)=O)NC3=O)c[nH]c12 [compound 1] ([X1][Trp(7-Me)]Q[Thp]Y(Me2NCH2CH2)[2Nal][Aib]EN[3Pal][Sar]-NH2; lactam N-8) has what remaining at 2 h, 1 µM?
Return: 90

* * *

experiment: Solubility of peptide compounds in buffer formulations (Table 5); assay type: physicochemical; conditions: aqueous buffer; 50 mM phosphate buffer pH 6.5, 2 h agitation, target 1 mg/ml; read-out: Solubility, Buffer pH 6.5
Numbered stars: 1 amine (or outer) side, 2 acyl side, 3 side chain; on linkers, the order of the positions; unused ones are H or OH. Bridge positions count the residues as written; N and C are the ends. Square brackets hold non-standard residues; d marks the D form. Peptide text beside a SMILES is read from it. * marks the point of attachment. Lys(Me,(CH2)4NMe(CH2)5CO) = CN(CCCCCC(=O)[*:3])CCCCN(C)CCCC[C@H](N[*:1])C(=O)[*:2]; Lys(Me,(CH2)4NMe(CH2)4CO) = CN(CCCCC(=O)[*:3])CCCCN(C)CCCC[C@H](N[*:1])C(=O)[*:2]; Trp(7-Me) = Cc1cccc2c(C[C@H](N)C(=O)O)c[nH]c12; Trp(1-Me) = Cn1cc(C[C@H](N)C(=O)O)c2ccccc21; αMeLys(Me2) = CN(C)CCCC[C@](C)(N)C(=O)O; 2Nal = N[C@@H](Cc1ccc2ccccc2c1)C(=O)O; X1 = O=C(CCCCCCCCCCCCCN[*:1])[*:2]; 3Pal = N[C@@H](Cc1cccnc1)C(=O)O; Aun = NCCCCCCCCCCC(=O)O; Thp = NC1(C(=O)O)CCOCC1; Me2NCH2CH2 = CN(C)CC*; Aib = CC(C)(N)C(=O)O; Sar = CNCC(=O)O
PARAMETER MEASURED: solubility at 2 h

Enquiry: Any idea what its solubility at 2 h is? The compound is Cc1cccc2c(C[C@@H]3NC(=O)CCCCCCCCCCCCCNC(=O)CC[C@@H](C(=O)N[C@@H](CC(N)=O)C(=O)N[C@@H](Cc4cccnc4)C(=O)N(C)CC(N)=O)NC(=O)C(C)(C)NC(=O)[C@H](Cc4ccc5ccccc5c4)NC(=O)[C@H](Cc4ccc(OCCN(C)C)cc4)NC(=O)C4(CCOCC4)NC(=O)[C@H](CCC(N)=O)NC3=O)c[nH]c12 [compound 1] ([X1][Trp(7-Me)]Q[Thp]Y(Me2NCH2CH2)[2Nal][Aib]EN[3Pal][Sar]-NH2; lactam N-8)
Return: < 10 µg/mL

Enquiry: Need solubility at 2 h of CC(=O)NCCCC[C@@H]1NC(=O)[C@H](Cc2c[nH]c3c(C)cccc23)NC(=O)CCCCCCCCCCNC(=O)CC[C@@H](C(=O)N[C@@H](CC(N)=O)C(=O)N[C@@H](Cc2cccnc2)C(=O)N(C)CC(N)=O)NC(=O)C2(CCOCC2)NC(=O)[C@H](Cc2ccc3ccccc3c2)NC(=O)[C@H](Cc2ccc(OCCN(C)C)cc2)NC(=O)C2(CCOCC2)NC1=O [compound 50] ([Aun][Trp(7-Me)]K(Ac)[Thp]Y(Me2NCH2CH2)[2Nal][Thp]EN[3Pal][Sar]-NH2; lactam N-8) , thanks.
Return: 340 µg/mL

Enquiry: Look up solubility at 2 h: CN(C)CCOc1ccc(C[C@@H]2NC(=O)C3(CCOCC3)NC(=O)[C@H](CCC(N)=O)NC(=O)[C@H](Cc3cn(C)c4ccccc34)NC(=O)CCCCCN(C)CCCCN(C)CCCC[C@@H](C(=O)N[C@@H](CC(N)=O)C(=O)N[C@@H](Cc3cccnc3)C(=O)N(C)CC(N)=O)NC(=O)C(C)(C)NC(=O)[C@H](Cc3ccc4ccccc4c3)NC2=O)cc1 [compound 33] ([Trp(1-Me)]Q[Thp]Y(Me2NCH2CH2)[2Nal][Aib][Lys(Me,(CH2)4NMe(CH2)5CO)]N[3Pal][Sar]-NH2; lactam N-7)
Return: ≥ 1120 µg/mL

Enquiry: // query solubility at 2 h value for entry CN(C)CCOc1ccc(C[C@@H]2NC(=O)C3(CCOCC3)NC(=O)[C@H](CCC(N)=O)NC(=O)[C@H](Cc3cn(C)c4ccccc34)NC(=O)CCCCN(C)CCCCN(C)CCCC[C@@H](C(=O)N[C@@H](CO)C(=O)N[C@@H](Cc3cccnc3)C(=O)N(C)CC(N)=O)NC(=O)C(C)(C)NC(=O)[C@H](Cc3ccc4ccccc4c3)NC2=O)cc1 [compound 40] ([Trp(1-Me)]Q[Thp]Y(Me2NCH2CH2)[2Nal][Aib][Lys(Me,(CH2)4NMe(CH2)4CO)]S[3Pal][Sar]-NH2; lactam N-7)
Return: ≥ 1070 µg/mL

Enquiry: # lookup: solubility at 2 h of Cc1cccc2c(C[C@@H]3NC(=O)CCCCCN(C)CCCCN(C)CCCC[C@@H](C(=O)NCC(=O)N[C@@H](Cc4cccnc4)C(=O)N(C)CC(N)=O)NC(=O)C(C)(C)NC(=O)[C@H](Cc4ccc5ccccc5c4)NC(=O)[C@H](Cc4ccc(OCCN(C)C)cc4)NC(=O)C4(CCOCC4)NC(=O)[C@H](CCC(N)=O)NC3=O)c[nH]c12 [compound 26] ([Trp(7-Me)]Q[Thp]Y(Me2NCH2CH2)[2Nal][Aib][Lys(Me,(CH2)4NMe(CH2)5CO)]G[3Pal][Sar]-NH2; lactam N-7)
Return: ≥ 1010 µg/mL

Enquiry: Any idea what its solubility at 2 h is? The compound is CN(C)CCOc1ccc(C[C@@H]2NC(=O)C3(CCOCC3)NC(=O)[C@H](CCC(N)=O)NC(=O)[C@H](Cc3c[nH]c4ccccc34)NC(=O)CCCCN(C)CCCCN(C)CCCC[C@@H](C(=O)N[C@@H](CO)C(=O)N[C@@H](Cc3cccnc3)C(=O)N(C)CC(N)=O)NC(=O)C(C)(C)NC(=O)[C@H](Cc3ccc4ccccc4c3)NC2=O)cc1 [compound 41] (WQ[Thp]Y(Me2NCH2CH2)[2Nal][Aib][Lys(Me,(CH2)4NMe(CH2)4CO)]S[3Pal][Sar]-NH2; lactam N-7)
Return: ≥ 960 µg/mL

Enquiry: May I ask what solubility at 2 h has been recorded for CN(C)CCOc1ccc(C[C@@H]2NC(=O)C3(CCOCC3)NC(=O)[C@H](CCC(N)=O)NC(=O)[C@H](Cc3cn(C)c4ccccc34)NC(=O)CCCCN(C)CCCCN(C)CCCC[C@@H](C(=O)NCC(=O)N[C@@H](Cc3cccnc3)C(=O)N(C)CC(N)=O)NC(=O)C(C)(C)NC(=O)[C@H](Cc3ccc4ccccc4c3)NC2=O)cc1 [compound 30] ([Trp(1-Me)]Q[Thp]Y(Me2NCH2CH2)[2Nal][Aib][Lys(Me,(CH2)4NMe(CH2)4CO)]G[3Pal][Sar]-NH2; lactam N-7) ?
Return: ≥ 890 µg/mL

Enquiry: Which solubility at 2 h value is on record for CC(=O)NCCCC[C@@H]1NC(=O)[C@H](Cc2c[nH]c3c(C)cccc23)NC(=O)CCCCCCCCCCNC(=O)CC[C@@H](C(=O)N[C@@H](CC(N)=O)C(=O)N[C@@H](Cc2cccnc2)C(=O)N(C)CC(N)=O)NC(=O)C(C)(C)NC(=O)[C@H](Cc2ccc3ccccc3c2)NC(=O)[C@H](Cc2ccc(OCCN(C)C)cc2)NC(=O)C2(CCOCC2)NC1=O [compound 16] ([Aun][Trp(7-Me)]K(Ac)[Thp]Y(Me2NCH2CH2)[2Nal][Aib]EN[3Pal][Sar]-NH2; lactam N-8) ?
Return: 760 µg/mL

Enquiry: Which measured solubility at 2 h value corresponds to Cc1cccc2c(C[C@@H]3NC(=O)CCCCCCCCCCNC(=O)CC[C@@H](C(=O)N[C@@H](CC(N)=O)C(=O)N[C@@H](Cc4cccnc4)C(=O)N(C)CC(N)=O)NC(=O)[C@](C)(CCCCN(C)C)NC(=O)[C@H](Cc4ccc5ccccc5c4)NC(=O)[C@H](Cc4ccc(OCCN(C)C)cc4)NC(=O)C4(CCOCC4)NC(=O)[C@H](CCC(N)=O)NC3=O)c[nH]c12 [compound 20] ([Aun][Trp(7-Me)]Q[Thp]Y(Me2NCH2CH2)[2Nal][αMeLys(Me2)]EN[3Pal][Sar]-NH2; lactam N-8) ?
Return: < 10 µg/mL
